- test: yeast display, Sf9 membrane polyspecificity reagent, FACS + sequencing; frameworks hold sequencing errors

{"biosequence": "QVQLVESGGGLVQAGGSLRLSSAASGRIFPRYAMGWYSQAPGKERELVAAISGSGGGTYYADSVKGRFTISRDNAKNTVYLQMNSLKPEDTAVYYCAAVATQEKYDYWGQGTQVTVSS", "polyreactivity (PSR sort gate)": "low polyreactivity"}
{"biosequence": "QVQLVESGGGLVQAGGSLRLSCAASGRTFWIYAMGWYRQAPGKEREFVAAISSSGGGTYYADSVKGRFTISRDNAKNTVYLQMNSLKPEDTAVYYCAADDGYSSNEFDYWGQGTQVTVSS", "polyreactivity (PSR sort gate)": "low polyreactivity"}
